Known Tumor Inhibition Rate (%) of a selection of compounds
# System: MV4-11 cell Bab/c nude mouse tumor model
# procedure summary: In vivo tumor growth inhibition experiment
# experimental conditions: Dose 2.5 mg/kg, Day 10
property: Tumor Inhibition Rate (%)

>>> result("CC(C)(C)c1cc(NC(=O)Nc2ccc(-n3cnc4ccccc43)cc2)[nH]n1 [Compound 68]")
"16.2%"
>>> result("COc1ccc2c(c1)ncn2-c1ccc(NC(=O)Nc2cc(C(C)(C)C)n[nH]2)cc1 [Compound 71]")
"76.8%"
>>> result("CC(C)(C)c1cc(NC(=O)Nc2ccc(-n3cnc4cc(OCCN5CCOCC5)ccc43)cc2)[nH]n1 [Compound 89]")
"79.4%"
>>> result("CC(C)(C)c1cc(NC(=O)Nc2ccc(-n3cnc4cc(OCCN5CCOCC5)ccc43)cc2)no1 [Compound 16]")
"96.8%"
>>> result("COCCOc1ccc2c(c1)ncn2-c1ccc(NC(=O)Nc2cc(C(C)(C)C)n[nH]2)cc1 [Compound 77]")
"93.2%"

---

# target: CYP2D6 (Homo sapiens)
# Sequence (P10635 whole entry): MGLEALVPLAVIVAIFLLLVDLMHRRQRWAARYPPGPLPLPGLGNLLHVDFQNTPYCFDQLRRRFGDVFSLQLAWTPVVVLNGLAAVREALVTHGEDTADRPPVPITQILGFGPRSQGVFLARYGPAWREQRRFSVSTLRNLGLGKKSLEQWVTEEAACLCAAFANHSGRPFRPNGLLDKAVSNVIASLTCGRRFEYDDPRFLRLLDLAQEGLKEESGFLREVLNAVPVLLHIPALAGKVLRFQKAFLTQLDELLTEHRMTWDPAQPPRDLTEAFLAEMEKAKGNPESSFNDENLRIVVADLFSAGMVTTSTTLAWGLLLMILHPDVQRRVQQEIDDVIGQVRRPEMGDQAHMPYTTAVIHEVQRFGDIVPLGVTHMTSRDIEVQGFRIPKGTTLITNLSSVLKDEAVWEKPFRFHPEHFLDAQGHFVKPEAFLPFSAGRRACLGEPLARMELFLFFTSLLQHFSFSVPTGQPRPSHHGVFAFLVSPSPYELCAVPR
property: IC50

>>> result("COCCOc1ccc2c(c1)ncn2-c1ccc(NC(=O)Nc2cc(C(C)(C)C)n[nH]2)cc1")
"> 50 µM"

---

# procedure summary: In vivo pharmacokinetics in rats
# Set-up: species or system rat
# experimental conditions: male, SD, rat, plasma, iv, 5 mg/kg, intravenously, 5 mg/kg, individual animals 101-103, read-out: AUC(0-t)
Where a name gives a salt, the structure may show the parent alone.
property: AUC(0-t) (µg·h/mL)

>>> measured_number("COCCOc1ccc2c(c1)ncn2-c1ccc(NC(=O)Nc2cc(C(C)(C)C)n[nH]2)cc1 [Compound 77 Mesylate]")
14.9

---

# System: NCI-H1781 (HER2/ErbB2 Ins G776V,C mutant type)
# procedure summary: In vitro growth inhibition (GI50), NCI-H1781
# Type: cell-based
# experimental conditions: Homo sapiens
Known GI50 of a selection of compounds
property: GI50

>>> result("CC(C)(C)c1cc(N)n(C(=O)Nc2ccc(-n3cnc4ccccc43)cc2)n1 [Compound 116]")
"> 2.5 µM"
>>> result("COCCOc1ccc2c(c1)ncn2-c1ccc(NC(=O)Nc2cc(C(C)(C)C)n[nH]2)cc1 [Compound 77]")
"> 2.5 µM"
>>> result("CC(C)(C)c1cc(NC(=O)Nc2ccc(-n3cnc4cc(OCCN5CCOCC5)ccc43)cc2)[nH]n1 [Compound 89]")
"> 2.5 µM"
>>> result("CC(C)(C)c1cc(NC(=O)Nc2ccc(-n3cnc4cc(O)ccc43)cc2)no1 [Compound 4]")
"> 2.5 µM"
>>> result("CC(C)(C)c1cc(NC(=O)Nc2ccc(-n3cnc4cc(OCCO)ccc43)cc2)[nH]n1 [Compound 79]")
"> 2.5 µM"
>>> result("COc1ccc2c(c1)ncn2-c1ccc(NC(=O)Nc2cc(C(C)(C)C)n[nH]2)cc1 [Compound 71]")
"> 2.5 µM"
>>> result("CC(C)(C)c1cc(NC(=O)Nc2ccc(-n3cnc4ccccc43)cc2)[nH]n1 [Compound 68]")
"> 2.5 µM"
>>> result("CC(C)(C)c1cc(NC(=O)Nc2ccc(-n3cnc4cc(OCCO)ccc43)cc2)no1 [Compound 11]")
"> 2.5 µM"
>>> result("CC(C)(C)c1cc(NC(=O)Nc2ccc(-n3cnc4cc(OCCN5CCOCC5)ccc43)cc2)no1 [Compound 16]")
"> 2.5 µM"
>>> result("CC(C)(C)c1cc(NC(=O)Nc2ccc(-n3cnc4ccc(OCCN5CCOCC5)cc43)cc2)no1 [Compound 27]")
"> 2.5 µM"
